# credit: the supplement of paper PMC10724198

- System: Saccharomyces cerevisiae;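 note: PSI is a weighted mean of sequencing reads over stability bins, variants kept only with over 10 reads, mCherry proximal and sfGFP distal, peptide attached via GGGS linker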
- ASSAY TEXT: protein stability index of tFT-peptide fusion (C-terminal peptide) (PSI (0-1 scale)); higher = more stable (slower turnover)
- SETTINGS: genetic background: wild type; temperature: 30 C
Reported values of protein stability index for individual entries

{"columns": ["SEQUENCE CODE", "protein stability index"],
 "data": [
  ["KRKERKGEKKRR", 0.685],
  ["PKSRSVTTSIPG", 0.691],
  ["EGPEGRDVVRRY", 0.644],
  ["RNKNNKKNKKIR", 0.702],
  ["NIRLRRKIIINK", 0.562],
  ["GVDGVLGGWGCG", 0.786],
  ["LSGTGTIIKARA", 0.67],
  ["ASNPGPLTPPQP", 0.705],
  ["FVLWYFCCVGCM", 0.321],
  ["DRLGQYSLIQRG", 0.687],
  ["GYKLLIEGNWEV", 0.756],
  ["VWICPTLFLLFS", 0.455],
  ["WGCVGVVGLFSG", 0.656],
  ["REGGVLGVVKWS", 0.668],
  ["SLRPPLRPPTVV", 0.601],
  ["RFGGGAVWGLGG", 0.666],
  ["ALSHGPAPRTRS", 0.649],
  ["RYCESKVFKERE", 0.742],
  ["GTGRRRGWGVMG", 0.664],
  ["LPPAPAPPQCST", 0.675],
  ["SLSSAALFHGPF", 0.598],
  ["SLSSPILYLFAS", 0.65],
  ["VSREWNVSIDVF", 0.495],
  ["VLHFIFLCRCPV", 0.497],
  ["AMLLRCRQGDLI", 0.675],
  ["RGVGGVLEVLLG", 0.526],
  ["IPSCSTPAPHLP", 0.677],
  ["GCGCVVRVWSGV", 0.662],
  ["PPPPPPPLTSLP", 0.717],
  ["MKTNFLDVKILM", 0.719]
]}
